Just for reference, ChEMBL document CHEMBL1136200 is where these values come from.

This listing pairs compounds with measured IC50.
# target_desc: Platelet-derived growth factor receptor beta (Homo sapiens, UniProt P09619)
# Sequence (P09619 whole entry): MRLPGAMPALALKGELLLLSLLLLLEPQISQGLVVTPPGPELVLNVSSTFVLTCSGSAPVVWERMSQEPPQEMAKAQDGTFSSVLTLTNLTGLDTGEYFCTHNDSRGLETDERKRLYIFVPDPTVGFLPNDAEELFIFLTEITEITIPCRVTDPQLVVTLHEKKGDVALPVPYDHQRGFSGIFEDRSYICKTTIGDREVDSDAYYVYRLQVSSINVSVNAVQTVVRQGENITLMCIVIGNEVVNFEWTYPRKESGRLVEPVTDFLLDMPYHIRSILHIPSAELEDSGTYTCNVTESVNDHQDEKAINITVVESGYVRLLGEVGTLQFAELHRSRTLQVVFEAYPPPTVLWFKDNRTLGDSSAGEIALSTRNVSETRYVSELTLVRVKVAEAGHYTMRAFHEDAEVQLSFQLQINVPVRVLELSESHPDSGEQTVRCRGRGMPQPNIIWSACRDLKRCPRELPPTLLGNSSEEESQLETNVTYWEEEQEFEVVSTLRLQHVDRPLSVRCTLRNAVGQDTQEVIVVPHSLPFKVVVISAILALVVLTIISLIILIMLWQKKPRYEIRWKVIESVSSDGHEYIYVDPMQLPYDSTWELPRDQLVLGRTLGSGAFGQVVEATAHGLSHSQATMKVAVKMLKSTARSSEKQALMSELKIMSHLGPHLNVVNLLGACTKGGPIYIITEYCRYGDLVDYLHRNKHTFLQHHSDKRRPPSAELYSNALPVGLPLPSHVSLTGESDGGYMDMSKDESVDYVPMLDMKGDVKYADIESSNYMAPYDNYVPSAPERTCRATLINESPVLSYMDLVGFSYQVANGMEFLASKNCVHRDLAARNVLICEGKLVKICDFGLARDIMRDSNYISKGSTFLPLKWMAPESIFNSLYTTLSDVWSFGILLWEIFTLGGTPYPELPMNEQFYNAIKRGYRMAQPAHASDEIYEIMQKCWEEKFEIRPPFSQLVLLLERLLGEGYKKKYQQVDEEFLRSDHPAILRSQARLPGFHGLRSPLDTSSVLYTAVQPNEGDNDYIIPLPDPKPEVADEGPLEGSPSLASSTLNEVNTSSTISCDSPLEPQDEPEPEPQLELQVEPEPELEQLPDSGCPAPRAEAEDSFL
# method_summary: Inhibitory concentration against platelet-derived growth factor receptor beta phosphorylation in CHO cells

mol_smiles: Nc1cc2ncnc(N3CCN(C(=O)Nc4ccc(Oc5ccccc5)cc4)CC3)c2cc1[N+](=O)[O-]
quantity_unit: nM
value_qualifier: =
IC50: 1160
--
mol_smiles: CC(=O)Nc1cc2c(N3CCN(/C(S)=N\Cc4ccccc4)CC3)ncnc2cc1Cl
quantity_unit: nM
value_qualifier: >
IC50: 1000
--
mol_smiles: Cc1ccc2ncnc(N3CCN(C(=O)Nc4ccc(Oc5ccccc5)cc4)CC3)c2c1
quantity_unit: nM
value_qualifier: =
IC50: 540
--
mol_smiles: Nc1cc2c(N3CCN(C(=S)NCc4ccccc4)CC3)ncnc2cc1Cl
quantity_unit: nM
value_qualifier: =
IC50: 160
--
mol_smiles: S=C(NCc1ccccc1)N1CCN(c2ncnc3cc(Cl)ccc23)CC1
quantity_unit: nM
value_qualifier: =
IC50: 5160
--
mol_smiles: O=C(Nc1ccc(Oc2ccccc2)cc1)N1CCN(c2ncnc3ccc([N+](=O)[O-])cc23)CC1
quantity_unit: nM
value_qualifier: =
IC50: 29700
--
mol_smiles: O=C(Nc1ccc(Oc2ccccc2)cc1)N1CCN(c2ncnc3ccc(Br)cc23)CC1
quantity_unit: nM
value_qualifier: =
IC50: 1380
--
mol_smiles: O=C(O)c1ccc2c(N3CCN(C(=O)Nc4ccc(Oc5ccccc5)cc4)CC3)ncnc2c1
quantity_unit: nM
value_qualifier: >
IC50: 30000
--
mol_smiles: O=C(Nc1ccc(Oc2ccccc2)cc1)N1CCN(c2ncnc3cc(Cl)c([N+](=O)[O-])cc23)CC1
quantity_unit: nM
value_qualifier: =
IC50: 1320
--
mol_smiles: O=C(Nc1ccc(Oc2ccccc2)cc1)N1CCN(c2ncnc3cc([N+](=O)[O-])ccc23)CC1
quantity_unit: nM
value_qualifier: =
IC50: 2880

====

This listing pairs compounds with measured IC50.
# target_desc: Platelet-derived growth factor receptor beta (Homo sapiens, UniProt P09619)
# method_summary: Inhibitory concentration against platelet-derived growth factor receptor beta phosphorylation in CHO cells
value_kind: IC50 (µM)

mol_smiles: O=C(Nc1ccc(Oc2ccccc2)cc1)N1CCN(c2ncnc3ccc(F)cc23)CC1
quantity_unit: µM
value_qualifier: =
readout_value: 0.35

mol_smiles: COC(=O)c1ccc2c(N3CCN(C(=O)Nc4ccc(Oc5ccccc5)cc4)CC3)ncnc2c1
quantity_unit: µM
value_qualifier: >
readout_value: 0.75

mol_smiles: O=C(Nc1ccc(Oc2ccccc2)cc1)N1CCN(c2ncnc3ccc(I)cc23)CC1
quantity_unit: µM
value_qualifier: =
readout_value: 5.17

mol_smiles: Cc1cccc2ncnc(N3CCN(C(=O)Nc4ccc(Oc5ccccc5)cc4)CC3)c12
quantity_unit: µM
value_qualifier: =
readout_value: 6.25

mol_smiles: O=[N+]([O-])c1cc2c(N3CCN(C(=S)NCc4ccccc4)CC3)ncnc2cc1Cl
quantity_unit: µM
value_qualifier: >
readout_value: 30

mol_smiles: Cc1ccc2c(N3CCN(C(=O)Nc4ccc(Oc5ccccc5)cc4)CC3)ncnc2c1
quantity_unit: µM
value_qualifier: >
readout_value: 0.1

mol_smiles: CC(C)Oc1ccc2c(N3CCN(C(=O)Nc4ccc(Oc5ccccc5)cc4)CC3)ncnc2c1
quantity_unit: µM
value_qualifier: =
readout_value: 1.12

mol_smiles: COc1cccc2c(N3CCN(C(=O)Nc4ccc(Oc5ccccc5)cc4)CC3)ncnc12
quantity_unit: µM
value_qualifier: =
readout_value: 10.7

mol_smiles: O=C(Nc1ccc(Oc2ccccc2)cc1)N1CCN(c2ncnc3cc(F)c(F)cc23)CC1
quantity_unit: µM
value_qualifier: =
readout_value: 0.97
